# system.name: Estrogen receptor (Homo sapiens)
# Sequence (P03372 whole entry): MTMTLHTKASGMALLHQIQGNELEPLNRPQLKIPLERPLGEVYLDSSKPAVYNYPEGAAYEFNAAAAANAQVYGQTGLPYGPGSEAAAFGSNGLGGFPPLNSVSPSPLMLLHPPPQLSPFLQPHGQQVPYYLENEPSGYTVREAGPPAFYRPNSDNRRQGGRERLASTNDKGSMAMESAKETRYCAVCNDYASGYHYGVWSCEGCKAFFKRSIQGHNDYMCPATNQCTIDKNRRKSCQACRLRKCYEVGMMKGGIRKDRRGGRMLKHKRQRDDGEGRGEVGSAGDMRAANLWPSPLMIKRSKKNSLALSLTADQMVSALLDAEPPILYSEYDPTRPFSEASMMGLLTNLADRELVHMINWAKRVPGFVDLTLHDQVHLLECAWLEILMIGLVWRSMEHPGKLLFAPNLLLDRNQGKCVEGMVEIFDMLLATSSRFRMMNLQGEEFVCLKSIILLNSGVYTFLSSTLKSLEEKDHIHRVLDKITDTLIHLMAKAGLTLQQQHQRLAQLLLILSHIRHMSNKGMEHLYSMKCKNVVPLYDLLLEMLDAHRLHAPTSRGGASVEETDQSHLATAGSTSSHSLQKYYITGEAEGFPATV
metric.name: IC50 (nM)

test_smiles=CC1=C2c3ccc(O)cc3C[C@@]23CC[C@H](C3)C1=O system_name="Estrogen receptor (Homo sapiens)" measured_result=793
test_smiles=CCC[C@@H]1CC[C@@H]2C[C@]13Cc1cc(O)ccc1C3=C(C)C2=O system_name="Estrogen receptor (Homo sapiens)" measured_result=84
test_smiles=CC1=C2c3ccc(O)cc3C[C@@]23CCC[C@H](C3)C1=O system_name="Estrogen receptor (Homo sapiens)" measured_result=414
test_smiles=CC[C@H]1CC[C@@H]2C[C@]13Cc1cc(O)ccc1C3=C(C)C2=O system_name="Estrogen receptor (Homo sapiens)" measured_result=310
test_smiles=CCC[C@H]1CC[C@@H]2C[C@]13Cc1cc(O)ccc1C3=C(C)C2=O system_name="Estrogen receptor (Homo sapiens)" measured_result=605

---

# system.name: UniProtKB Q92731
# Sequence (Q92731 whole entry): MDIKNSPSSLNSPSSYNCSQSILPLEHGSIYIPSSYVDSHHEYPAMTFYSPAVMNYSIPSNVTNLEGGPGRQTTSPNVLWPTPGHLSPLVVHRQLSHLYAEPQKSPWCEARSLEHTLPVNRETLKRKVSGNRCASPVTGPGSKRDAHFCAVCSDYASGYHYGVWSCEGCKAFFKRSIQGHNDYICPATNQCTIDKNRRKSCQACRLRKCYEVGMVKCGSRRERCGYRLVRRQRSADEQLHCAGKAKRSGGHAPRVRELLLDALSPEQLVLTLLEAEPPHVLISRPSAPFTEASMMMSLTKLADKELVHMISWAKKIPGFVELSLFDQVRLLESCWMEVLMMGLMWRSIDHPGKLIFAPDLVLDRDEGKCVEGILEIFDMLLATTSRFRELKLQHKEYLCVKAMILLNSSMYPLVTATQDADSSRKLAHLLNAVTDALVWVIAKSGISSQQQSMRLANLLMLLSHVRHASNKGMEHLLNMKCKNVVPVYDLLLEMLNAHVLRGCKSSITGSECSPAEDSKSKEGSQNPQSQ
metric.name: IC50 (nM)

test_smiles=CCC[C@H]1CC[C@@H]2C[C@]13Cc1cc(O)ccc1C3=C(C)C2=O metric_name=IC50 measured_result=141
test_smiles=CCC[C@@H]1CC[C@@H]2C[C@]13Cc1cc(O)ccc1C3=C(C)C2=O metric_name=IC50 measured_result=5
test_smiles=CC[C@H]1CC[C@@H]2C[C@]13Cc1cc(O)ccc1C3=C(C)C2=O metric_name=IC50 measured_result=45
test_smiles=CC1=C2c3ccc(O)cc3C[C@@]23CC[C@H](C3)C1=O metric_name=IC50 measured_result=12
